experiment: RP, Phenomenex Kinetex EVO C18, 150 × 3 mm, 2.6 µm, 40 °C, 0.35 mL/min, estimated dead time 1.9 min; A: water + 5 mM ammonium formate, pH 5; B: acetonitrile; gradient (min/%B) 0/5 20/100 25/100 30/5; details: stereoisomer not certain
MEASURED_PROPERTY: LC retention time (min)
Write it as a number; the unit min goes unstated.

Example compounds with recorded LC retention time:
C#CC1(O)CCC2C3CCC4=CC(=O)CCC4C3CCC21C (stereo not given) [Norethindrone] :: 11.2
CCN=C1NC(Cl)NC(NC(C)(C)C#N)N1 (stereo not given) [Cyanazine] :: 8.86
O=P(Oc1ccccc1)(Oc1ccccc1)Oc1ccccc1 [Triphenylphosphate] :: 13.8
CN(C)C(=O)Nc1ccc(Cl)cc1 [Monuron] :: 8.56
CSC1N=C(NC(C)C)NC(NC(C)C)=N1 [Prometryn] :: 12.5

Record summary for CNC(=O)C=C(C)OP(=O)(OC)OC [Monocrotophos] : reported LC retention time = 4.17

Record summary for CCN=C1NC(=NCC)NC(Cl)N1 (stereo not given) [Simazine] : reported LC retention time = 8.6

Record summary for Cc1cc(C)nc(NS(=O)(=O)c2ccc(N)cc2)n1 [Sulfamethazine] : reported LC retention time = 5.18

Record summary for O=C1Nc2ccc(Cl)cc2C(C#CC2CC2)(C(F)(F)F)O1 (stereo not given) [Efavirenz] : reported LC retention time = 13.6

Record summary for c1ccc2nccnc2c1 [Quinoxaline] : reported LC retention time = 5.73
